# MEASURED TARGET: Receptor-interacting serine/threonine-protein kinase 2 (Homo sapiens)
# ASSAY PROTOCOL: inhibitors of RIPK2 association with NOD2 – fluorescence, CHO cells, BLA complementation, primary screen (AID 624267)
# CONDITIONS USED: CHO BLA complementation NOD2-RIPK2, CCF4 ratio; at 4.98 µM
The whole screen tested about 360,000 compounds, of which about 1,400 (0.39%) were called active. No stated cut-off is given here; in the data, active means inhibition above about 21%; inactive means the rest. The entries come from a sample that favours actives as a whole.
Your response should consist of one outcome taken from YES for active, NO for inactive

Illustrative cases are given below, each with its answer.
{"columns": ["MOLECULE", "MEASURED TARGET", "CATEGORY LABEL"],
 "data": [
  ["C/C(=C/c1ccccc1)C(=O)N1CCN(c2ccccc2)CC1", "Receptor-interacting serine/threonine-protein kinase 2 (Homo sapiens)", "NO"],
  ["CC(=O)Oc1ccc(C)cc1N1C(=O)c2ccc(C(=O)O)cc2C1=O", "Receptor-interacting serine/threonine-protein kinase 2 (Homo sapiens)", "NO"],
  ["Cn1c(Cc2cccc3ccccc23)nnc1SCC(=O)N1CCN(c2cccc(Cl)c2)CC1", "Receptor-interacting serine/threonine-protein kinase 2 (Homo sapiens)", "NO"],
  ["COc1ccc(NC(=O)/C(Cl)=C(/Cl)S(=O)Cc2ccc(C)cc2)cn1 (centres undefined)", "Receptor-interacting serine/threonine-protein kinase 2 (Homo sapiens)", "YES"],
  ["O=C(O)CCC(=O)Nc1ccc(N2CCOCC2)cc1", "Receptor-interacting serine/threonine-protein kinase 2 (Homo sapiens)", "NO"],
  ["COCCCn1c(Cc2csc(Nc3cccc(Cl)c3)n2)nnc1SCC(=O)OC1CCCCC1", "Receptor-interacting serine/threonine-protein kinase 2 (Homo sapiens)", "NO"]
]}

q: Short answer needed: outcome of this test for O=C(O)CC(Cc1ccccc1)C(=O)Nc1ccc([N+](=O)[O-])cc1 (centres undefined) ?
a: NO

q: Queued: CS(=O)(=O)N(CC(=O)N1CCCC1)Cc1ccccc1
a: NO

q: Further, for O=C(/C=C/c1ccc(N2CCOCC2)cc1)c1ccccc1 ?
a: YES
